# maps each entry to its TGI
System: HT29 colon
Assay: NCI tumour cell line growth inhibition, 48 h

Solved cases (3 shown):
COMPOUND	OUTCOME MEASURE	READOUT VALUE
O=S(=O)(c1ccccc1)[C@H]1[C@@H]2O[C@@H]2C[C@@H]1O	TGI	> 100 µM
C/C=C1/C[C@@H](C)[C@@](C)(O)C(=O)OCC2=CC[N+]3([O-])CC[C@@H](OC1=O)[C@@H]23 (stereo partly specified)	TGI	> 100 µM
COc1ccc(C2=Nn3c(nnc3-c3ccccc3)S/C2=C\c2ccc(-c3ccc([N+](=O)[O-])cc3)o2)cc1	TGI	90.3 µM

Data request: // TGI lookup, key: `O=C1OC(c2ccc(O)c(F)c2)(c2ccc(O)c(F)c2)c2cccc3cccc1c23`
Data returned: > 25 µM

Data request: Entry `NS(=O)(=O)c1ccc(N=Nc2ncccc2O)cc1` please
Data returned: > 100 µM

Data request: Entry COC(=O)CCC(NC(=S)N/N=C(\C)c1ccco1)C(=O)OC (stereo unspecified) please
Data returned: > 100 µM

###

Test system: K-562 leukemia
Give your call using only these classes: yes (1) for active, no (0) for inactive

Examples with answers:
COMPOUND	ASSIGNED CLASS
C/C(Cc1ccc(Cl)cc1)=C(\c1ccc(OCCN2CCCCCC2)cc1)c1ccc(OC(=O)c2ccccc2)cc1	no (0)
CCSc1nc2[nH]c(=S)[nH]c(=S)c2c(-c2ccc(OC)c(OC)c2)c1C#N	no (0)

Data request: Hi, sorry to bother you, what did the test record for `Cn1cc(C2=C(c3cn(C)c4ccc(OCc5ccccc5)cc34)C(=O)NC2=O)c2ccccc21` ?
Data returned: no (0)

Data request: Entry `C=CC(=O)N1CC2(CCC(n3nc(-c4ccc(Oc5ccccc5)cc4)c4c(N)ncnc43)CC2)C1` please
Data returned: no (0)

Data request: Entry COc1ccc(C2C(C#N)=C(N)Oc3c2sc2c(C)cccc32)cc1 (stereo unspecified) please
Data returned: yes (1)

Data request: Entry COc1ccc2c(c1)SC1=NNC(Cl)C(=O)N12 (stereo unspecified) please
Data returned: no (0)

Data request: Entry `CCCOC(=O)c1ccc2c(c1)[N+](=O)C(C(=O)c1ccccc1)=C(C(F)(F)F)[N+]2=O` please
Data returned: no (0)

Data request: Entry `COc1ccc(/C(COc2ccc3c(c2)oc(=O)c2cc(OC)ccc23)=N/O)cc1` please
Data returned: no (0)

Data request: Entry `CCC[CH2][Sn]1([CH2]CCC)[O]CC(c2ccccn2)C[O]1` please
Data returned: no (0)

Data request: Entry `CC(=O)Nc1cccc(C#Cc2cncnc2Nc2ccc(OCc3cccc(F)c3)c(Cl)c2)n1` please
Data returned: no (0)

Data request: Entry `COC(=O)C(=Cc1ccccc1[N+](=O)[O-])C(=O)OC` please
Data returned: no (0)

Data request: Entry `COc1ccc(/C=C/C(=O)c2ccc(NC(=O)CSc3nnc(-c4ccc(OC)c(OC)c4)n3-c3ccccc3)cc2)cc1` please
Data returned: no (0)

Data request: Entry `CC#CC#Cc1cccc(=O)o1` please
Data returned: yes (1)

Data request: Entry `CC(C)OC(=O)Nc1ccc(-c2nc(-c3cccc(OCCN4CCOCC4)c3)c(-c3ccnc(Br)c3)[nH]2)cc1` please
Data returned: no (0)

Data request: Entry `COc1cc(C(=O)/C=C/c2c(C)n([O-])c3ccc(C(F)(F)F)cc3[n+]2=O)cc(OC)c1OC` please
Data returned: no (0)

Data request: Entry `COC(=O)/C=C1/SC(=Nc2ccc(C(F)(F)F)cc2)N(CCc2c[nH]c3ccc(O)cc23)C1=O` please
Data returned: no (0)

###

Record type: GI50 measurement. Applies to: CAKI-1 renal

Solved cases (5 shown):
COMPOUND	READOUT VALUE
COc1cccc2c(Nc3ccc(C(=O)O)cc3)cc(-c3ccccc3)nc12	> 100 µM
Cc1ccc2cc3c(N)c4c(C)ccc(C)c4nc3nc2c1	10.2 µM
COc1ccc(C(O)c2cc3c(N)c(C(=O)Nc4ccc(Br)cc4)sc3nc2C)cc1 (centres undefined)	3.5 µM
COC(=O)C(=Cc1ccccc1[N+](=O)[O-])C(=O)OC	3.61 µM
CC#CC#Cc1cccc(=O)o1	2.1 µM

Data request: Observed GI50 on CAKI-1 renal for `Nc1nonc1-c1nc2cnccc2n1C1CCCCC1` , please.
Data returned: 11.6 µM

Data request: Entry `CC(=O)N1CCN([C@H]2CCC[C@@H](NC(=O)c3cc4c(F)ccc(C)c4[nH]3)C2)CC1` please
Data returned: 11.2 µM

Data request: Entry `C=CC(=O)N1CC2(CCC(n3nc(-c4ccc(Oc5ccccc5)cc4)c4c(N)ncnc43)CC2)C1` please
Data returned: 0.0283 µM

Data request: Entry `CCCCCCC[CH2][Sn]([Cl])([Cl])[CH2]CCCCCCC` please
Data returned: 11 µM

Data request: Entry `CCSc1nc2[nH]c(=S)[nH]c(=S)c2c(-c2ccc(OC)c(OC)c2)c1C#N` please
Data returned: 17.4 µM

Data request: Entry `O=C(/C=C/c1cccc(O)c1)c1cccc(-n2cc(-c3ccc(Cl)cc3)[nH]c2=O)c1` please
Data returned: 1.72 µM

Data request: Entry `CCCOC(=O)c1ccc2c(c1)[N+](=O)C(C(=O)c1ccccc1)=C(C(F)(F)F)[N+]2=O` please
Data returned: 1.78 µM

Data request: Entry `CC(=O)O[C@H]1C(=O)[C@@]2(C)[C@H]([C@H](OC(=O)c3ccccc3)[C@]3(O)C[C@H](OC(=O)[C@H](OC(=O)OC[C@@H]4COC(C)(C)O4)[C@@H](NC(=O)c4ccccc4)c4ccccc4)C(C)=C1C3(C)C)[C@]1(OC(C)=O)CO[C@@H]1C[C@@H]2O` please
Data returned: 0.182 µM

Data request: Entry `Cc1cc2nc3c4cc(C=O)ccc4n(CCN(C)C)c3nc2cc1C` please
Data returned: 1.7 µM

Data request: Entry `O=C(Nc1ccc(OCc2nnc(-c3ccc(Cl)cc3)o2)c(F)c1)Nc1ccc(Cl)c(Cl)c1` please
Data returned: 21.7 µM

Data request: Entry `Cc1ccc(-c2c3c(nn2-c2ccc(S(=O)(=O)NC(=O)Nc4ccccc4)cc2)-c2ccccc2C3)cc1` please
Data returned: 15.4 µM

Data request: Entry `Cn1cc(C2=C(c3cn(C)c4ccc(OCc5ccccc5)cc34)C(=O)NC2=O)c2ccccc21` please
Data returned: > 25 µM

Data request: Entry `COC(=O)c1ccc2[nH]c(O)c(C(=Nc3ccc(N(C)C(=O)CN4CCN(C)CC4)cc3)c3ccc(OC)cc3)c2c1` please
Data returned: 0.383 µM

Data request: Entry `CC(C)OC(=O)Nc1ccc(-c2nc(-c3cccc(OCCN4CCOCC4)c3)c(-c3ccnc(Br)c3)[nH]2)cc1` please
Data returned: 2.85 µM

###

System: COLO 205 colon
Experiment: NCI tumour cell line growth inhibition, 48 h
# maps each entry to its TGI

MOLECULE	TGI
OC1(c2ccccc2)CSc2ncnn21 (stereo unspecified)	> 100 µM
COc1cccc2c(Nc3ccc(C(=O)O)cc3)cc(-c3ccccc3)nc12	> 100 µM
CCCCCC(=O)n1[nH]c(=O)n(-c2ccc(OC)cc2)c1=O	> 100 µM

Data request: // TGI lookup, key: `O=C(/C=C/c1cccc(O)c1)c1cccc(-n2cc(-c3ccc(Cl)cc3)[nH]c2=O)c1`
Data returned: 4.95 µM

Data request: Entry `NC1CCCCC1N.O=NN1CCCCCC1(P(=O)([O-])[O-])P(=O)([O-])[O-].[Na+].[Pt+2]` please
Data returned: > 100 µM

###

System: PC-3 prostate
Test: NCI tumour cell line growth inhibition, 48 h
Outcome: 1 for TGI of at least 20 µM; 0 for anything lower.

Examples with answers:
MOLECULE	ASSIGNED CLASS
CCOP(=O)(OCC)OC1c2[nH]ccc2-c2cc(C(=O)OC)[nH]c2C1OC (configuration not stated)	1
O=C1CC(c2ccccc2Cl)C2(C(=O)NC(=S)NC2=O)C(c2ccccc2Cl)C1 (configuration not stated)	1
Cc1cc(C)nc(NS(=O)(=O)c2ccc(NNc3c4ccccc4nc4c(C(=O)Nc5ccc(S(=O)(=O)N=C(N)N)cc5)cccc34)cc2)n1	1
Cc1c2ccccc2c(C)n2c1nc1cc3ccccc3cc12	0
COC(=O)c1cc(CC2Cc3cc4c(cc3C2)CCC4)cc2c1CCC2	1
CC(=O)Oc1ccc(/C=C/C(=O)NCC(NC(=O)/C=C/c2ccc(OC(C)=O)c(OC(C)=O)c2)C(=O)O)cc1OC(C)=O (configuration not stated)	1

Data request: Decide: is the reported value of TGI for `O=C1C[C@@H](c2ccc(O)cc2)[C@@]2(O1)C(=O)O[C@H]([C@@H](O)CO)[C@@H]2O` equal to or greater than 20 µM?
Data returned: 1

Data request: Entry `Clc1nc(Cl)c2ncn(CC#CCn3cnc4c(Cl)nc(Cl)nc43)c2n1` please
Data returned: 0

Data request: Entry `Cc1ccc2cc3c(N)c4c(C)ccc(C)c4nc3nc2c1` please
Data returned: 1

Data request: Entry COC12COC(=O)C1C(c1ccc3c(c1)OCO3)c1cc3c(cc1O2)OCO3 (configuration not stated) please
Data returned: 1

Data request: Entry C=C1CCC(O)C/C1=C/C=C1\CCCC2(C)C1CCC2C(C)CCCC(C)C (configuration not stated) please
Data returned: 1

Data request: Entry `N#Cc1nnc2ccccc2c1N` please
Data returned: 1
